Assignment: determine reported Kd for the given binders.
Molecular target: SARS-CoV-2 Spike (S) protein, wild type (SARS-CoV-2, UniProt P0DTC2 14-1208)
Experiment: HT-SPR Carterra LSA; mAb coupled to chip, Spike in solution; 1:1 Langmuir fit

Past entries and their recorded results:
{"Binder": "anti-SARS-CoV-2 antibody 1037 (antibody, V domains shown) VH: QITLKESGPTLVKPTQTLTLTCTFSGFSLSTSGVGVGWIRQPPGKALEWLALIYWDDDKRYSPSLKSRLTITKDTSKNQVVLTMTNMDPVDTATYYCAHHTITRINDYWGQGTLVTVSS VL: QSALTQPASVSGSPGQSITISCTATSSDVGAYNYVSWYQQHPGKAPKLMIYDVSKRPSGVSNRFSGSKSGNTASLTISGLQAEDEADYYCSSYTSSSTVFGGGTKLTVLG", "Value measured": "0.0319 nM"}
{"Binder": "anti-SARS-CoV-2 antibody 1015 (antibody, V domains shown) VH: EVQLVESGGGLVQPGGSLRLSCAASGFTFSSYWMHWVRQAPGKGLVWVSHINSDGSSTSYADSVKGRFTISRDNAKNTLYLQMNSLRAEDTAVYYCARGLRYFDLDVWGQGTTVTVSS VL: QSVLTQPPSVSEAPRQRVTISCSGSSSNIGNNAVNWYQQLPGKAPKLLIFYDDLLPSGVSDRFSGSKSGTSASLAISGLQSEDEADYYCAAWDDSLNGGVFGGGTKLTVLG", "Value measured": "0.0439 nM"}

Now take the following binder into account.
Qu. Suppose we examine the binder anti-SARS-CoV-2 antibody 851 (antibody, V domains shown) VH: QITLKESGPTLVKPTQTLTLTCTFSGFSLSTNGVGMGWIRQPPGKALEWLALIYWDDDQFYSPSLKSRLTITRDTSKNQVVLTMTNMDPVDTATYYCAQAFYESFGFYSWGQGTLVTVSS VL: NFMLTQPHSVSESPGKTVIISCTRSIGSIASNYVQWYQQRPGSAPTIVVFEDNERPSGVPDRFSGSIDRSSNSASLTISGLKTEDEADYYCQSYDGSSELVFGGGTKLTVLG ; what Kd value has been reported?
Ans. ≤ 1.44 nM
